Tested on: BDF1 mice, P388 leukemia ip, median survival T/C
Assay: NCI In Vivo Anticancer Drug Screen. Data for tumor model P388 Leukemia (intraperitoneal) in B6D2F1 (BDF1) mice
Conditions: endpoint: median survival time; dose: 50.0 mg/kg/injection; schedule: Q01DX009 (ip); vehicle: Klucel (hydroxypropylcellulose) (HPC); higher = longer survival
Inconclusive results and toxic doses are left out.
Below is a list of entries, each paired with its recorded T/C value.
readout: T/C

> print(dat)
                                   molecule  readout            result
1  COC(=O)C1=COC2OC3CC1C2C(C)O3 (stereo not drawn)      T/C  115 % of control
2  CN1CCC(C(c2ccccc2)c2ccccc2)C1 (stereo not drawn)      T/C  109 % of control
3  CC(C)(C)OC(=O)NNC(=O)c1ccc([N+](=O)[O-])cc1      T/C   90 % of control

---

Tested on: BDF1 mice, P388 leukemia ip, median survival T/C
Assay: NCI In Vivo Anticancer Drug Screen. Data for tumor model P388 Leukemia (intraperitoneal) in B6D2F1 (BDF1) mice
Conditions: endpoint: median survival time; dose: 50.0 mg/kg/injection; schedule: Q01DX009 (ip); vehicle: saline with Tween-80; higher = longer survival
Method: The antitumor activity of compounds was measured in mice bearing transplantable tumors. Survival or tumor size were measured and the results are expressed as the measurement made in the treated group (T) divided by the measurement made in the vehicle treated control group (C). The tumor model used in this assay is P388 Leukemia (intraperitoneal) in B6D2F1 (BDF1) mice
Toxic doses and inconclusive results are not listed.
Below is a list of entries, each paired with its recorded T/C value.
readout: T/C

> print(dat)
                                    compound                                    system            result
 1  CC(=O)c1ccccc1OCC(O)CN1CCN(c2ccccc2)CC1 (stereo not drawn)  BDF1 mice, P388 leukemia ip, median survival T/C  100 % of control
 2  CCN1CCCC(Nc2nc(C(Cl)(Cl)Cl)nc3cc(Cl)ccc23)C1 (stereo not drawn)  BDF1 mice, P388 leukemia ip, median survival T/C  113 % of control
 3  CC=NC(C[S-])C(=O)O.CC=NC(C[S-])C(=O)O.[Fe+2] (stereo not drawn)  BDF1 mice, P388 leukemia ip, median survival T/C  110 % of control
 4                       O=C(Nc1ccccc1)OCCBr  BDF1 mice, P388 leukemia ip, median survival T/C   99 % of control
 5  CCCCCCCCCCCCCCSC1CC(=O)OC1=O (stereo not drawn)  BDF1 mice, P388 leukemia ip, median survival T/C   98 % of control
 6      O=C1Nc2ccc(Br)cc2C1=Nc1ccc2c(c1)OCO2  BDF1 mice, P388 leukemia ip, median survival T/C  113 % of control
 7  C[C@]12C=CC(=O)C=C1CC[C@@H]1[C@@H]2CC[C@]2(C)OC(=O)CC[C@@H]12  BDF1 mice, P388 leukemia ip, median survival T/C  100 % of control
 8  CCC/C=C/C=C/C1CC(O)C(O)C(=O)C1CO (stereo not drawn)  BDF1 mice, P388 leukemia ip, median survival T/C   97 % of control
 9       O=[N+]([O-])c1ccc(SC2=NCCN2)c(Cl)c1  BDF1 mice, P388 leukemia ip, median survival T/C   94 % of control
10  O=C1OC(=O)C2C1C(c1ccc(Cl)cc1)N1C3C(=O)OC(=O)C3C(c3ccc(Cl)cc3)N21 (stereo not drawn)  BDF1 mice, P388 leukemia ip, median survival T/C   97 % of control
11  CCC(=O)O[C@H]1CC[C@H]2[C@@H]3CCC4=CC(=O)C[C@]4(C)[C@H]3CC[C@]12C  BDF1 mice, P388 leukemia ip, median survival T/C  100 % of control
12  Cc1ccc(C(=O)NCCCOc2ccc(N)cc2Cl)cc1S(=O)(=O)F  BDF1 mice, P388 leukemia ip, median survival T/C  111 % of control
13         COc1cc2ccc3c(c2cc1OC)C=[N+](C)CC3  BDF1 mice, P388 leukemia ip, median survival T/C  108 % of control
14      Nc1ncnc2oc(-c3ccccc3)c(-c3ccccc3)c12  BDF1 mice, P388 leukemia ip, median survival T/C   92 % of control
15  O=C(NC(=O)c1c(F)cccc1F)Nc1ccc(Cl)c2ccccc12  BDF1 mice, P388 leukemia ip, median survival T/C  100 % of control
16  CCSC1(SCC)C(=O)OC2=C(CCCCCC2)C1N(C)C (stereo not drawn)  BDF1 mice, P388 leukemia ip, median survival T/C   96 % of control
17  CC1(c2ccco2)C(=O)NC(=O)N1C(=O)CCl (stereo not drawn)  BDF1 mice, P388 leukemia ip, median survival T/C  100 % of control
18  COc1ccc2[nH]c3c(c2c1)CCNC3CC(C)CCC=C(C)C (stereo not drawn)  BDF1 mice, P388 leukemia ip, median survival T/C   93 % of control
19  FC(F)(F)c1cc(-c2ccc(C3Nc4ccccc4-n4cccc43)o2)cc(C(F)(F)F)c1 (stereo not drawn)  BDF1 mice, P388 leukemia ip, median survival T/C   92 % of control
20        COc1ccc(S(=O)(=O)c2ccccc2)c2nonc12  BDF1 mice, P388 leukemia ip, median survival T/C   86 % of control
21  CCC1(C)CCC2=C(CCC3C(C)(C(=O)O)CCCC23C)C1 (stereo not drawn)  BDF1 mice, P388 leukemia ip, median survival T/C  100 % of control
22      O=[N+]([O-])c1ccc(-c2nnc3ncccn23)cc1  BDF1 mice, P388 leukemia ip, median survival T/C  102 % of control
23              C(=C/c1ccnc2ccccc12)/c1cccs1  BDF1 mice, P388 leukemia ip, median survival T/C  110 % of control

---

System: BDF1 mice, P388 leukemia ip, median survival T/C
Experiment: NCI In Vivo Anticancer Drug Screen. Data for tumor model P388 Leukemia (intraperitoneal) in B6D2F1 (BDF1) mice
Conditions: endpoint: median survival time; dose: 25.0 mg/kg/injection; schedule: Q04DX003 (ip); vehicle: saline
Toxic doses and inconclusive results are not listed. The calls were made as follows: active = survival T/C of 150% or more; inactive = T/C below 125% in these data.
Outcomes: y for active, n for inactive

> print(dat)
                                    compound  class.name
 1    Nc1ccc2nc3ccc(N)cc3[n+](-c3ccccc3)c2c1           y
 2         CC/C(=C\c1ccc(Cl)cc1)[N+](=O)[O-]           n
 3  CC1CN1P(=O)(N1CCCC1)N1CC1C (configuration not stated)           n
 4       CCN(CC)CCOC(=O)c1ccccc1Nc1cccc(C)c1           n
 5                     N/C(=N\Cl)C(Cl)(Cl)Cl           n
 6  NC(=O)c1cn(C2OC(CO)C(O)C2O)c2ncn3ccnc3c12 (configuration not stated)           n
 7          CC(=O)CC(C)=O.CC(=O)CC(C)=O.[Fe]           n
 8  CCN(CC)CCCOC(=O)/C=C/c1c(C)[nH]c(=O)[nH]c1=O           n
 9          CC1(C)N=C(N)N=C(N)N1c1cccc(CN)c1           n
10  c1nc(N2CC2)c2cnn(C3CCCCO3)c2n1 (configuration not stated)           n
11  CN(C)c1ccc(C2OC3(CCCCC3)C[N+]23CCCC3)cc1 (configuration not stated)           n
12    CC(=O)Nc1cc(NC(C)=O)cc([N+](=O)[O-])c1           n

---

System: BDF1 mice, P388 leukemia ip, median survival T/C
Assay: NCI In Vivo Anticancer Drug Screen. Data for tumor model P388 Leukemia (intraperitoneal) in B6D2F1 (BDF1) mice
Settings: endpoint: median survival time; dose: 3.12 mg/kg/injection; schedule: Q01DX009 (ip); vehicle: water
Inconclusive results and toxic doses are left out. The calls were made as follows: active = survival T/C of 150% or more; inactive = T/C below 125% in these data.
Outcomes: 1 = active, -1 = inactive

molecule	system	class.name
CCN(CC)CCCC(C)NC/C=C/CNC(C)CCCN(CC)CC (stereo not given)	BDF1 mice, P388 leukemia ip, median survival T/C	-1
NC(Cc1c[nH]c2ccccc12)C(=O)OCc1ccccc1 (stereo not given)	BDF1 mice, P388 leukemia ip, median survival T/C	-1
CC(=O)NC(Cc1ccc(N(CCCl)CCCl)cc1)C(=O)O (stereo not given)	BDF1 mice, P388 leukemia ip, median survival T/C	-1
COc1cccc2c1C(=O)c1c(O)c3c(c(O)c1C2=O)C[C@@](O)(/C(CO)=N/NC(=O)c1ccccc1)C[C@@H]3OC1CC(N)C(O)C(C)O1 (stereo not given in full)	BDF1 mice, P388 leukemia ip, median survival T/C	1
COc1cccc2c1C(=O)c1c(O)c3c(c(O)c1C2=O)C[C@@](O)(C(C)=O)C[C@@H]3OC(=O)CCN	BDF1 mice, P388 leukemia ip, median survival T/C	-1
